Here, each record is paired with measured Max Activation (agr-GFP reporter, ΔagrD strain) data.
# target.system: L. monocytogenes AgrC (Listeria monocytogenes (EGD-e))
# method.notes: cell-based or functional assay
Bridges are numbered along the chain shown (N, C = ends). Where no end group is shown, it is not given here.
readout.type: Max Activation (agr-GFP reporter, ΔagrD strain) (%)

> print(dat)
                                     binder   val
1  SKACFMFV (not fully specified; thiolactone ring Cys4-Val8 (Cys side chain to C-terminal carboxyl)) [8-mer]  71.5
2  MSKACFMFV (not fully specified; thiolactone ring Cys5-Val9 (Cys side chain to C-terminal carboxyl)) [9-mer]  93.6
3  VADSSMSKACFMFV (not fully specified; thiolactone ring Cys10-Val14 (Cys side chain to C-terminal carboxyl)) [14-mer]   105
4  KACFMFV (bridge 3-C; also: thiolactone: Cys3 side chain to C-terminal carboxyl) [7-mer, K-A-(C-F-M-F-V)]  64.6
5  ADSSMSKACFMFV (not fully specified; thiolactone ring Cys9-Val13 (Cys side chain to C-terminal carboxyl)) [13-mer]   108
6  DSSMSKACFMFV (not fully specified; thiolactone ring Cys8-Val12 (Cys side chain to C-terminal carboxyl)) [12-mer]   116
7  SSMSKACFMFV (not fully specified; thiolactone ring Cys7-Val11 (Cys side chain to C-terminal carboxyl)) [11-mer]   111
8  SMSKACFMFV (not fully specified; thiolactone ring Cys6-Val10 (Cys side chain to C-terminal carboxyl)) [10-mer]   110
9  KVADSSMSKACFMFV (not fully specified; thiolactone ring Cys11-Val15 (Cys side chain to C-terminal carboxyl)) [15-mer]   122
